# Tested on: OVCAR-3 ovarian
# assay.summary: NCI tumour cell line growth inhibition, 48 h; in the data active = GI50 below about 0.43 µM; inactive = the rest
Respond using exactly one of the listed classes: t = active, f = inactive

Cc1c(N2C(=O)/C(=C\c3ccccc3O)N=C2c2ccccc2)c(=O)n(-c2ccccc2)n1C ... f
NNC(=O)c1cnn(-c2ccnc3c(C(F)(F)F)cccc23)c1N ... f
COc1nc2c(cc1S(=O)(=O)c1ccccc1)CCc1c-2cnn1-c1ccccc1Cl ... f
COc1cc2c(c(OC)c1OC)-c1ccc(NCc3ccccc3)c(=O)cc1[C@@H](NC(C)=O)CC2 ... t
CNC(=O)c1cc(Oc2ccc3c(c2)sc2nc(-c4ccc(N)cc4)cn23)ccn1 ... t

[Q] Field: outcome | Entry: `CN=C1NC(=O)/C(=C/c2ccc3ncccc3c2)S1`
[A] f

[Q] Field: outcome | Entry: `CC[n+]1ccc2c(c1)C(=O)c1nccc3c1c-2nc1ccccc13`
[A] f

[Q] Field: outcome | Entry: `CCOC(=O)c1cc(-c2ccc([N+](=O)[O-])cc2)n(-c2ccc(C(=O)O)c(O)c2)c1C`
[A] f

[Q] Field: outcome | Entry: `CN(C)CCNc1nc2ccccc2c2[nH]c3ccccc3c12`
[A] f

----------
# Test system: COLO 205 colon
# assay.summary: NCI tumour cell line growth inhibition, 48 h
measurement.type: GI50

COc1cccc(-c2nn(-c3ccccc3)cc2-c2ccnc(NCCCNS(=O)(=O)c3cccc(F)c3)c2)c1 ... 2.41 µM
C[C@@H]1Cc2c([nH]c3ccccc23)[C@@H](c2c(F)cc(/C=C/C(=O)O)cc2F)N1CC(C)(C)F ... 16.5 µM
Fc1ccc(-c2nn(-c3ccccc3)cc2-c2nc3ccccc3o2)cc1 ... 15.1 µM
Cn1c(-c2nonc2N)nc2cnccc21 ... > 25 µM
COC(=O)c1c2c(c(C)[n+]([O-])c1C)C(=O)C=CC2=O ... 1.64 µM

Give GI50 for each of the items listed below.
1. Clc1cccc(NC=Nc2ccc(-c3nc4ccccc4s3)cc2)c1
2. CCCCCCCCCCCCOC1C(CNCC2OC3OC(C)(C)OC3C2NC(=O)Nc2ccc(C(=O)OCC)cc2)OC2OC(C)(C)OC21 (stereo not drawn)

[A]
1: 12.2 µM; 2: 1.99 µM

[Q] Need GI50, item OC(c1cccc(C(F)(F)F)c1)c1cnccc1NC1CCCCCC1 (stereo not drawn)
[A] 1.73 µM

----------
# System: DU-145 prostate
# assay.summary: NCI tumour cell line growth inhibition, 48 h
Exercise: state measured GI50 for each of the compounds provided.

Fc1ccc(-c2nn(-c3ccccc3)cc2-c2nc3ccccc3o2)cc1 ... 5.65 µM
O=[n+]1c(CBr)c(CBr)n([O-])c2ccccc21 ... 5.8 µM
S=C1NCCN1C1=Nc2ccccc2CO1 ... > 100 µM
CC[n+]1ccc2c(c1)C(=O)c1nccc3c1c-2nc1ccccc13 ... 1.03 µM
COc1cccc(-c2nn(-c3ccccc3)cc2-c2ccnc(NCCCNS(=O)(=O)c3cccc(F)c3)c2)c1 ... 6.33 µM
COc1ccc(-n2cc(-c3ccc(OC)c(OC)c3)[nH]c2=S)cc1Cl ... > 100 µM

Give GI50 for each of the items listed below.
1. Cc1c(Cl)cccc1Nc1ncccc1C(=O)O
2. CCOC(=O)c1cc(-c2ccc([N+](=O)[O-])cc2)n(-c2ccc(C(=O)O)c(O)c2)c1C
3. CCN1CCN(c2nc(NCCNc3ccnc4cc(Cl)ccc34)c3ccccc3n2)CC1

[A]
1: > 100 µM; 2: 4.55 µM; 3: 2.17 µM

[Q] Need GI50, item `COc1ccc(CNC(=O)COc2ccc(/C=N/Nc3nc4ccccc4s3)cc2)cc1`
[A] 3.8 µM
